What EC50 was measured for each of the following?
- Tested on: 280 human cancer cell lines
- test-method-notes: OncoPanel cell proliferation assay (10-day)
- Type: cell-based
- test-context: Homo sapiens, RKO, Colon; read-out: Cell Count EC50
I only need the number, in µM, no unit after it.

Exam item: Please list EC50 recorded for the compound CC(C)=CCC[C@H](CO)[C@@H]1CC[C@@H](C)c2c1cc(C)c(O)c2O [Compound 1, 7,8,18-trihydroxyserrulat-14-ene]
Marked response: 1.69

Exam item: Tell us which EC50 value is on record for CC(C)=CCC[C@H](C)[C@@H]1CC[C@@H](C)c2c1cc(C)c(O)c2O [Compound 4, 7,8-dihydroxyserrulat-14-ene]
Marked response: 12

Exam item: Supply measured EC50 of CC(C)=CCC[C@@H]1C(O)Oc2c(C)cc(O)c3c2[C@H]1CC[C@H]3C (stereo partly drawn) in your reply.
Marked response: 7.22

---

- target-desc: JMJD2B (h) (Homo sapiens, UniProt O94953)
- Sequence (O94953 1-1096): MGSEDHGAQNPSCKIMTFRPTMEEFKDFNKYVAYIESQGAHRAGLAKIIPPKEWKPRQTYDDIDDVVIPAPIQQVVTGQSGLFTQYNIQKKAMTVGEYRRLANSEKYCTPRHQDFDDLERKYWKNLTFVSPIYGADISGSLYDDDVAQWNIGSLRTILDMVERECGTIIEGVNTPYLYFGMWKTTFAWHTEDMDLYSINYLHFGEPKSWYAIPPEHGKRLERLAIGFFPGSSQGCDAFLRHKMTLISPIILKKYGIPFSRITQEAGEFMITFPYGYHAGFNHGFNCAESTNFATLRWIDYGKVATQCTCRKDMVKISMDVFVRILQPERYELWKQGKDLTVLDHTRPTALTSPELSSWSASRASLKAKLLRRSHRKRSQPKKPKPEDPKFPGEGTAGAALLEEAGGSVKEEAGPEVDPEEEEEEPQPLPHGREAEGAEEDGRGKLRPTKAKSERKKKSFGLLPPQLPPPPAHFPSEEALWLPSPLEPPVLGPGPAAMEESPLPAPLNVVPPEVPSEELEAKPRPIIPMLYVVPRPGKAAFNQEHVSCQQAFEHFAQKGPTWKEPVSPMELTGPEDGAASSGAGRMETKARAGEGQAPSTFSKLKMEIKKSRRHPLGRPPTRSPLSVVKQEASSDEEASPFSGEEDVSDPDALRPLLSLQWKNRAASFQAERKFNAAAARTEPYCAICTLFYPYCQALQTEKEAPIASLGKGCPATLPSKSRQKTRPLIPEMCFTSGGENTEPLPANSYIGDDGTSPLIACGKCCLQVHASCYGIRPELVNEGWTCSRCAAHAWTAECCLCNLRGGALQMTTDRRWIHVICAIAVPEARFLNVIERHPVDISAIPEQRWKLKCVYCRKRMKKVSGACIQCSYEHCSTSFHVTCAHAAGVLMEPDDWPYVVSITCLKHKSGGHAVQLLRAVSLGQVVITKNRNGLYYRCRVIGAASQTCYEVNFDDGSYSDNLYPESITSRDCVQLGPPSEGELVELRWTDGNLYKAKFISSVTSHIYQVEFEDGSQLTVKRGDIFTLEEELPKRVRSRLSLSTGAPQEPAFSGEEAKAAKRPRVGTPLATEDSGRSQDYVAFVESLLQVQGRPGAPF
- test-method-notes: Epigenetic enzyme assay, Demethylases (KDMs)
- Type: biochemical
- test-context: read-out: IC50
observation-type: IC50

Exam item: For the compound O=C(O)c1ccnc(C(=O)O)c1 [2,4 PDCA, reference compound] , give its measured IC50 value.
Marked response: 95 nM

---

- Test system: 280 human cancer cell lines
- test-method-notes: OncoPanel cell proliferation assay (10-day)
- Type: cell-based
- test-context: Homo sapiens, HLF, Liver; read-out: Cell Count EC50
Kindly state pEC50 for each of the entries shown.
Remember, pEC50 is on a log scale: it is -log10 of the molar concentration.

Exam item: Look up and report pEC50, with 280 human cancer cell lines as system, for CC(C)=CCC[C@H](CO)[C@@H]1CC[C@@H](C)c2c1cc(C)c(O)c2O [Compound 1, 7,8,18-trihydroxyserrulat-14-ene]
Marked response: 5.35

Exam item: Find pEC50 for CC(C)=CCC[C@H](C)[C@@H]1CC[C@@H](C)c2c1cc(C)c(O)c2O [Compound 4, 7,8-dihydroxyserrulat-14-ene] on 280 human cancer cell lines and write it down.
Marked response: 5.06

Exam item: // output pEC50; input CC(C)=CCC[C@@H]1C(O)Oc2c(C)cc(O)c3c2[C@H]1CC[C@H]3C (stereo partly drawn) [Compound 2, 5,18-epoxyserrulat-14-en-8,18-diol] ; system 280 human cancer cell lines
Marked response: 4.86

---

- System: 280 human cancer cell lines
- test-method-notes: OncoPanel cell proliferation assay (10-day)
- Assay type: cell-based
- test-context: Homo sapiens, SKO-007, SKO-007, Myeloma; read-out: Cell Count EC50
observation-type: pEC50
Remember, pEC50 is on a log scale: it is -log10 of the molar concentration.

Exam item: Fill in pEC50 for CC(C)=CCC[C@H](C)[C@@H]1CC[C@@H](C)c2c1cc(C)c(O)c2O [Compound 4, 7,8-dihydroxyserrulat-14-ene] tested with 280 human cancer cell lines.
Marked response: 5.33

Exam item: Name the recorded pEC50 of CC(C)=CCC[C@H](CO)[C@@H]1CC[C@@H](C)c2c1cc(C)c(O)c2O [Compound 1, 7,8,18-trihydroxyserrulat-14-ene] , assay system 280 human cancer cell lines.
Marked response: 6.00

Exam item: Enter measured pEC50, system 280 human cancer cell lines, for the compound shown: CC(C)=CCC[C@@H]1C(O)Oc2c(C)cc(O)c3c2[C@H]1CC[C@H]3C (stereo partly drawn)
Marked response: 5.80

---

Please provide measured inhibition at 10 µM for the entries that follow.
- target-desc: CYP2D6 (Homo sapiens, UniProt P10635)
- Sequence (P10635 whole entry): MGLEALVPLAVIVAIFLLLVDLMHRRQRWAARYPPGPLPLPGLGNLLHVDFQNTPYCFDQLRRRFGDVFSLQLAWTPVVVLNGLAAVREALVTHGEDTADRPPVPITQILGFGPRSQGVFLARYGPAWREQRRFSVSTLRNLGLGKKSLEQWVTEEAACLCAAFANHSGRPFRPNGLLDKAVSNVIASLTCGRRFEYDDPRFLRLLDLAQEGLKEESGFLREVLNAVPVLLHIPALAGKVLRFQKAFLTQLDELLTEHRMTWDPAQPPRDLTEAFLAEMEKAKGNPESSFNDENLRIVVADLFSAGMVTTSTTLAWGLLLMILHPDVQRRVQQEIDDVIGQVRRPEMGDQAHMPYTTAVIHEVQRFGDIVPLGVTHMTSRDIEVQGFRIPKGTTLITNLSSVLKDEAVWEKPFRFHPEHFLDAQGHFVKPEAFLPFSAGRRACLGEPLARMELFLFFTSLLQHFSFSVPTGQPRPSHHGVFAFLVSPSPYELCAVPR
- test-method-notes: in vitro
- test-context: human liver microsomes, probe dextromethorphan

Exam item: Return value of inhibition at 10 µM for input CC(C)=CCC[C@@H]1C(O)Oc2c(C)cc(O)c3c2[C@H]1CC[C@H]3C (stereo partly drawn) , no commentary.
Marked response: 44%

Exam item: Give a short answer stating reported inhibition at 10 µM for CC(C)=CCC[C@H](CO)[C@@H]1CC[C@@H](C)c2c1cc(C)c(O)c2O [Compound 1, 7,8,18-trihydroxyserrulat-14-ene] .
Marked response: 45%

Exam item: Return value of inhibition at 10 µM for input CC(C)=CCC[C@H](C)[C@@H]1CC[C@@H](C)c2c1cc(C)c(O)c2O [Compound 4, 7,8-dihydroxyserrulat-14-ene] , no commentary.
Marked response: 45%

---

- System: CCL2 release from IL-4, IL-13, IL-22 and IFN-γ-stimulated primary human keratinocytes
- test-method-notes: Keratinocyte CCL2 release (assay number 1280)
- Assay type: cell-based
- test-context: read-out: Inhibition of CCL2 release, Rel EC50
observation-type: EC50 (nM)
Give the number; nM is assumed, so skip it.

Exam item: Answer with reported EC50 of CC(C)=CCC[C@H](CO)[C@@H]1CC[C@@H](C)c2c1cc(C)c(O)c2O [Compound 1, 7,8,18-trihydroxyserrulat-14-ene]
Marked response: 92.2

---

- target-desc: MLL4(h) complex
- test-method-notes: Epigenetic enzyme assay, Methyltransferases (MTs)
- Assay type: biochemical, human
- test-context: read-out: Reference IC50
observation-type: IC50 (nM)
Field: numeric (nM). Do not append units.

Exam item: Tell us which IC50 value is on record for Nc1ncnc2c1ncn2[C@@H]1O[C@H](CSCC[C@H](N)C(=O)O)[C@@H](O)[C@H]1O
Marked response: 550

---

- Tested on: 280 human cancer cell lines
- test-method-notes: OncoPanel cell proliferation assay (10-day)
- Format: cell-based
- test-context: Homo sapiens, SW837, SW837, Colon; read-out: Cell Count EC50
observation-type: EC50 (µM)
The response must be a number in µM with no trailing unit.

Exam item: Output EC50 of CC(C)=CCC[C@H](C)[C@@H]1CC[C@@H](C)c2c1cc(C)c(O)c2O [Compound 4, 7,8-dihydroxyserrulat-14-ene]
Marked response: 18.9

Exam item: Read off the recorded EC50 for CC(C)=CCC[C@H](CO)[C@@H]1CC[C@@H](C)c2c1cc(C)c(O)c2O [Compound 1, 7,8,18-trihydroxyserrulat-14-ene]
Marked response: 2.35

---

- Tested on: 280 human cancer cell lines
- test-method-notes: OncoPanel cell proliferation assay (10-day)
- Type: cell-based
- test-context: Homo sapiens, T98G, CNS - Glioma; read-out: Cell Count EC50
observation-type: EC50 (µM)
Report the figure in µM without appending any unit label.

Exam item: Return EC50 for the following compound: CC(C)=CCC[C@H](C)[C@@H]1CC[C@@H](C)c2c1cc(C)c(O)c2O [Compound 4, 7,8-dihydroxyserrulat-14-ene]
Marked response: 24.5

Exam item: Respond only with EC50 recorded for CC(C)=CCC[C@@H]1C(O)Oc2c(C)cc(O)c3c2[C@H]1CC[C@H]3C (some centres unmarked)
Marked response: 19.1
